- System: c-Src;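 also: 11-residue human phosphosite peptides and single-mutation variants displayed on the E. coli surface, counted by deep sequencing, each peptide's frequency after selection divided by its frequency in the unselected input library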;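 also: frequency after pTyr selection over input frequency; kinase dosed for 20-30% of maximal phosphorylation in three min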
- Procedure details: phosphorylation enrichment, bacterial display (enrichment ratio); higher = better substrate or ligand; peptides without Tyr show the background
Value type: phosphorylation enrichment
Format: numeric value only, no unit, no commentary.

Task: Answer with the recorded phosphorylation enrichment for the sequence listed here: FRIGPYQPSVP [MATR3_Y784_N787S_YF]
Output: 0.478

Task: In one line, give reported phosphorylation enrichment of the entry HSSPVYVGRVV [TGM2_Y219_R214H] .
Output: 1.57

Task: Report phosphorylation enrichment, nothing else, for this sequence: IKAGAYDFPSL [CAMK2A_Y230_P235L]
Output: 0.388

Task: Using the record for AGIENYTSRFG [NKD2_Y256] , state its measured phosphorylation enrichment.
Output: 0.426

Task: Give phosphorylation enrichment for VRTGIYHGREP [PIK3CA_Y361_G364R]
Output: 0.503

Task: Specify measured phosphorylation enrichment for DRLASYLDKVR [KRT10_Y160] .
Output: 0.345

Task: Give recorded phosphorylation enrichment. AFAEVYEGQVS [ALK_Y1131_G1128A]
Output: 1.21

Task: Identify phosphorylation enrichment associated with the sequence KFLENYFDLKK [MMP3_Y41_YF]
Output: 0.499

Task: Indicate its recorded phosphorylation enrichment; the sequence in question is SLIDGYYRLTA [JAK2_Y372]
Output: 0.451

Task: Please list phosphorylation enrichment recorded for the sequence SARHHYESLQT [BIN1_Y157]
Output: 0.447

Task: Indicate its recorded phosphorylation enrichment; the sequence in question is MACDRYVAICS [OR8D4_Y123]
Output: 0.586

Task: State its phosphorylation enrichment: PFTRNYYVWAV [CYBA_Y87_R90W]
Output: 0.777

Task: Entry EFFENYIEELK [PARP4_Y218_F215Y_YF] needs its phosphorylation enrichment filled in; supply it.
Output: 0.501

Task: Tell me measured phosphorylation enrichment for DAANNYARGHF [TUBA3E_Y103_S101N_YF] please.
Output: 0.468

Task: Report phosphorylation enrichment for WRPFGYPRRRR [BCS1L_Y181]
Output: 0.446

Task: Identify measured phosphorylation enrichment associated with RQNNSYTCFTA [SLC20A2_Y386_R382Q_YF]
Output: 0.712

Task: Name the recorded phosphorylation enrichment of the item YRASYYRKGGC [ALK_Y1283] in your answer.
Output: 0.552

Task: Give the value of phosphorylation enrichment reported for the following: GLRQGYFVEAQ [APCS_Y142]
Output: 0.327

Task: Return value of phosphorylation enrichment for input FKPGFYNLKEK [LAMA1_Y490_C485Y_YF] , no commentary.
Output: 0.466

Task: Indicate its recorded phosphorylation enrichment; the sequence in question is PAIERYVVVCK [RHO_Y136_L131P]
Output: 0.474

Task: Give reported phosphorylation enrichment value for NVVVPYEPPEV [TP53_Y220_S215N]
Output: 0.543

Task: Quote phosphorylation enrichment reported for AHAGKYGAEAL [HBA1_Y25_E24K] please.
Output: 0.387

Task: Output measured phosphorylation enrichment for this item: VKALKYKSMKI [ITGA11_Y1098_L1093V]
Output: 0.306

Task: Identify measured phosphorylation enrichment corresponding to FLQTDYTSQVS [FRMPD1_Y846]
Output: 0.428

Task: Return phosphorylation enrichment for the following sequence: ILNANCMAKRL [GLDC_Y839_Y839C]
Output: 0.378

Task: Find the measured phosphorylation enrichment of LVIIKYLPEWT [PSEN1_Y240_F237I] and report it.
Output: 0.818

Task: Read the entry VDSNPYSHLMA [UBA5_Y53_R55H] and write its reported phosphorylation enrichment.
Output: 0.862

Task: Please report the measured phosphorylation enrichment for SKEPFYVHCIK [MYO1D_Y586_R588H_YF]
Output: 0.418

Task: Specify phosphorylation enrichment for QYQLKYSETPF [SIX6OS1_Y129] and stop.
Output: 0.519
